protocol_text: Solubility and mixing of protectors in the base pharmaceutical composition
assay_setup: 0.95% w/w Fluralaner in Transcutol V and Tween 80 25:75
measurement_kind: Solubility in the base pharmaceutical composition

Observe how each entry below is paired with its result.
>>> reading("O=S([O-])[O-].[Na+].[Na+] [Na-sulphite, Sodium sulphite]")
"not soluble"
>>> reading("CCCCCCCCCCCCOC(=O)c1cc(O)c(O)c(O)c1 [Lauryl gallate, dodecyl gallate]")
"soluble"
>>> reading("COc1ccc(O)c(C(C)(C)C)c1 [BHA, butylated hydroxyanisole]")
"soluble"
>>> reading("Cc1cc(C(C)(C)C)c(O)c(C(C)(C)C)c1 [BHT, butylated hydroxytoluene]")
"soluble"

# context switch: different molecule, same Solubility in the base pharmaceutical composition
get_value(item= O=S([O-])S(=O)(=O)[O-].[Na+].[Na+] [Na-metabisulfite, Sodium metabisulfite] , readout=Solubility in the base pharmaceutical composition) returns not soluble

The origin of these recorded values is patent US11179372B2.
